biological target: acetylcholine receptor; test: SPR, AchR immobilized on chip, peptide at 10 uM
reported_property: Binding affinity (RU)
I only need the number, in RU, no unit after it.

Look over these answered cases.
{"binder": "KGRRRR [6mer-2-54]", "readout_units": "RU", "Binding affinity": 124}
{"binder": "RQFYKK [6mer-2-30]", "readout_units": "RU", "Binding affinity": 139}
{"binder": "RWVTRR [6mer-2-17]", "readout_units": "RU", "Binding affinity": 142}
{"binder": "RLFTRK [6mer-2-21]", "readout_units": "RU", "Binding affinity": 141}
{"binder": "RWVSKR [6mer-2-5]", "readout_units": "RU", "Binding affinity": 124}

Ask: Need Binding affinity, item RQYTRK [6mer-2-13]
Reply: 123

Ask: // Binding affinity lookup, key: KLLYRK [6mer-2-37]
Reply: 148

Ask: For RWISRK [6mer-2-35] , what is its reported Binding affinity?
Reply: 148
